These data points were gathered from patent US20250270315A1.

target under test: Human SIRPα v2 (antigen of the Octet and Biacore affinity measurements) (human) (UniProt P78324)
assay protocol: SPR (Biacore), 1:1 binding model
value kind: kon (M⁻¹ s⁻¹)
API: value field is a number in M⁻¹ s⁻¹; no unit string.

binder="hu025.023 (antibody, V domains shown) VH: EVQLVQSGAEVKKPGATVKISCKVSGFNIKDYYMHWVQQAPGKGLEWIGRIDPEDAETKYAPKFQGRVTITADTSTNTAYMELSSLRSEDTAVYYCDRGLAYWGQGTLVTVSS VL: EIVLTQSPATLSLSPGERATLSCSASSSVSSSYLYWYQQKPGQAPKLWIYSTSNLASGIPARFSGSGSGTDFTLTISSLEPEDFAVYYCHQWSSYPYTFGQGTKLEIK" measurement_units="M⁻¹ s⁻¹" reported_measurement=1.77e+06
binder="025c (antibody, V domains shown) VH: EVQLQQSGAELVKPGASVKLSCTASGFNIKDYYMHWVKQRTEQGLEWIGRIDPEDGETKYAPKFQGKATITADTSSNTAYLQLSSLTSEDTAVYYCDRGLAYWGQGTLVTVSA VL: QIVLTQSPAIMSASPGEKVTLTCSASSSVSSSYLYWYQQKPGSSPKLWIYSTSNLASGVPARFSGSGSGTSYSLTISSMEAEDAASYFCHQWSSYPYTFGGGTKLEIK" measurement_units="M⁻¹ s⁻¹" reported_measurement=1.51e+06
binder="hu025.060 (antibody, V domains shown) VH: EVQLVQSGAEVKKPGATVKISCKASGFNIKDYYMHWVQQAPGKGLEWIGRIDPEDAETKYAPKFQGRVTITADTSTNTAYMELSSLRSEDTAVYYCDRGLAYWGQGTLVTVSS VL: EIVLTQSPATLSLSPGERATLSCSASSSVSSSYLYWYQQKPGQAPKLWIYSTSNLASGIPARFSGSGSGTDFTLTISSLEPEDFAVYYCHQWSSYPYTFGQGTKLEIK" measurement_units="M⁻¹ s⁻¹" reported_measurement=1.47e+06

Item hu025.021 (antibody, V domains shown) VH: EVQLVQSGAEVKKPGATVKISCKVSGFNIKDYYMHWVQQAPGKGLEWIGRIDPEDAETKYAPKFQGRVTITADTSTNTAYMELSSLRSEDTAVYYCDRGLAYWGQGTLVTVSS VL: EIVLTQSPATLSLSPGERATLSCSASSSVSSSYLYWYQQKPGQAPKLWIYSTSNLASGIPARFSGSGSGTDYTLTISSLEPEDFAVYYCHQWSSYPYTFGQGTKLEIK has what recorded kon? 1.65e+06

Item hu025.059 (antibody, V domains shown) VH: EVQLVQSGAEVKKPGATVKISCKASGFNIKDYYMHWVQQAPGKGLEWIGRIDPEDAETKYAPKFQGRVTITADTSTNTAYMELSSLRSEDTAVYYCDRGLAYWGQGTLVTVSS VL: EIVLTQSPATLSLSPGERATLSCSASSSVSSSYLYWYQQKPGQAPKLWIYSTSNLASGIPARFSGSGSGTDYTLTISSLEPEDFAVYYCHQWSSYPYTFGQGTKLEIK has what recorded kon? 1.42e+06
